Target Or Test System: VAV1 (Homo sapiens, UniProt P15498+Q96SW2)
Construct: A heterozygous VAV1 C-terminal HiBiT knock-in pool was generated at Monte Rosa Therapeutics from a clonal Jurkat cell; endogenous in cells; host or cells: Jurkat clone stably expressing LgBiT, homozygous GSPT1-G575N; heterozygous VAV1-HiBiT knock-in pool
Run Description: VAV1 degradation activity, VAV1-HiBiT knock-in Jurkat luminescence assay (Example A, Table 1)
Type: cell-based
Condition: VAV1-HiBiT knock-in Jurkat cells, luminescence read at 6 and 24 hours; read-out: VAV1 DC50 (nM), class
Experimental Readout: DC50

>  <Molecule>
CC1(C)CCCC(=O)N1c1ccc(-c2cccc(C3CCC(=O)NC3=O)c2Cl)cc1 (stereo not shown)

>  <DC50>
≤ 100 nM

$$$$

(Q) Request: DC50, test system VAV1 (Homo sapiens, UniProt P15498+Q96SW2), entry O=C1CCC(c2cccc(-c3ccc(CN4CCC(F)C4=O)cc3)c2Cl)C(=O)N1 (stereo not shown)
(A) ≤ 100 nM

(Q) Request: DC50, test system VAV1 (Homo sapiens, UniProt P15498+Q96SW2), entry CN1CCC[C@@H](c2ccc(-c3cccc(C4CCC(=O)NC4=O)c3Cl)cc2)C1=O (stereo partly shown)
(A) ≤ 100 nM

(Q) Request: DC50, test system VAV1 (Homo sapiens, UniProt P15498+Q96SW2), entry CN1CC(Cc2ccc(-c3cccc(C4CCC(=O)NC4=O)c3Cl)cc2)OC1=O (stereo not shown)
(A) 100 to 1000 nM

(Q) Request: DC50, test system VAV1 (Homo sapiens, UniProt P15498+Q96SW2), entry O=C1CCC(c2cccc(-c3ccc(N4CCOCC4)cc3)c2Cl)C(=O)N1 (stereo not shown)
(A) > 1000 nM

(Q) Request: DC50, test system VAV1 (Homo sapiens, UniProt P15498+Q96SW2), entry O=C1CCC(c2cccc(-c3ccc(N4Cc5ccccc5C4=O)cc3)c2Cl)C(=O)N1 (stereo not shown)
(A) > 1000 nM
